- System: Fibroblast
- protocolDetails: Incucyte cell viability with human fibroblast; note: filed as whole numbers so only -1 and 0 and 1 occur
- Type: toxicity, cell-based
- measurementContext: 6 h, 10 µM, compound concentration 10 uM, replicate number 1, timepoint 6 hours
quantityName: Growth Rate

>>> numericreadout("CCc1cccc(CC)c1NC(=O)c1nn(C)c2c1CCc1cnc(Nc3ccc(N4CCN(C)CC4)cc3OC)nc1-2")
0
>>> numericreadout("O=C1NCN(c2ccccc2)C12CCN(CC1COc3ccccc3O1)CC2 (stereo not given) [SPIROXATRINE]")
1
>>> numericreadout("CCCNS(=O)(=O)Nc1ncnc(OCCOc2ncc(Br)cn2)c1-c1ccc(Br)cc1")
0
>>> numericreadout("Cl.O=C(O)Cc1cccc(OCCCN(Cc2cccc(C(F)(F)F)c2Cl)CC(c2ccccc2)c2ccccc2)c1")
1
>>> numericreadout("CC1(C)CCC(C)(C)c2cc(NC(=O)c3ccc(C(=O)O)cc3)ccc21 [TAMIBAROTENE]")
0
